Reference source: the RNAGym collection of RNA variant scans (doi:10.7554/elife.90254)

Attribute: self-cleavage
B1: LINE1-mini (parent)
chain: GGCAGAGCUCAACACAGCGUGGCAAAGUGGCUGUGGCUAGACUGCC

Variants of: B1
Test: self-cleavage, relative activity (ratio to wild type); higher = more cleavage; in vitro, sequencing; the parent is a self-cleaving ribozyme

| MUTATION LABEL | READOUT NAME | ENDPOINT RESULT |
| --- | --- | --- |
| C10U U32C | self-cleavage | 0.1 |
| A6U C31A | self-cleavage | 0.38 |

Reported self-cleavage for G7C A11U : what is it?
0.04

Name the reported self-cleavage value associated with the variant A24G A39C
0.27

Name the reported self-cleavage value associated with the variant A4U C13A
0.12

Item U28G U34G has what recorded self-cleavage?
0.23

What value of self-cleavage has been reported for the following variant? U20G A24G
0.61

Form field: reported self-cleavage of C10U G22U
0.42

Fill blank: measured self-cleavage of the variant U28C C31G is ____.
0.16

Entry A26G G36U : reported self-cleavage = ?
0.12

Field request: self-cleavage | item: A39C C46G
0.17
